Where do these numbers come from? They come from patent US20240393292A1.

system: IgE antibodies from patients; assay: Wheat epitope mapping (2): overlapping 10-amino-acid peptide fragments shifted by one amino acid; type: binding, human; details: serum of patient P8 (WDEIA); partial sequence
assay.endpoint: Epitope sequence binding to IgE antibody, rank of the sequence

Example entries begin here.
- 2706 (YKIGGIGTV; REGION 1..9: note = epitope) [compound 2706]: Preferably
- 2500 (QVSF; REGION 1..4: note = epitope) [compound 2500]: Key
- 2707 (YKIGGIGT; REGION 1..8: note = epitope) [compound 2707]: Key
- 2499 (SQVSF; REGION 1..5: note = epitope) [compound 2499]: Preferably
- 2676 (YKGPTL; REGION 1..6: note = epitope) [compound 2676]: Key

// moving on: another record for Epitope sequence binding to IgE antibody, rank of the sequence
query: What value of Epitope sequence binding to IgE antibody, rank of the sequence has been reported for the following substance? 2501 (SFQPSQLNPQ; REGION 1..10: note = epitope) [compound 2501]
result: Key

====

tested on: IgE antibodies from patients; test: Wheat epitope mapping (2): overlapping 10-amino-acid peptide fragments shifted by one amino acid; format: binding, human; conditions: serum of patient G7 (adult, general immediate type allergy to wheat); sequence without X;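 as to Rank of partial sequence as epitope binding to IgE antibody: key = sequence deemed particularly important within the common 15-residue sequence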
assay.endpoint: Rank of partial sequence as epitope binding to IgE antibody

Example entries begin here.
* 1499 (YLQPQQPISQ; REGION 1..10: note = epitope) [compound 1499] | More preferably
* 1565 (QQQQFLGQ; REGION 1..8: note = epitope) [compound 1565] | Key
* 1505 (SQQQA; REGION 1..5: note = epitope) [compound 1505] | Key
* 1502 (LQPQQP; REGION 1..6: note = epitope) [compound 1502] | Key
* 1563 (QVPLVQQQQ; REGION 1..9: note = epitope) [compound 1563] | Preferably
* 1503 (QPISQQQA; REGION 1..8: note = epitope) [compound 1503] | Preferably

query: What value of Rank of partial sequence as epitope binding to IgE antibody has been reported for the following substance? 1500 (YLQPQQPIS; REGION 1..9: note = epitope) [compound 1500]
result: Preferably

query: What value of Rank of partial sequence as epitope binding to IgE antibody has been reported for the following substance? 1562 (QVPLVQQQQF; REGION 1..10: note = epitope) [compound 1562]
result: More preferably

====

test system: IgE antibodies from patients; test: Wheat epitope mapping (2): overlapping 10-amino-acid peptide fragments shifted by one amino acid; format: binding, human; conditions: serum of patient P17 (WDEIA)
assay.endpoint: epitope sequence binding to IgE antibody, rank (Key/Preferably/More preferably)

* 1800 (KELEALPK; REGION 1..8: note = epitope) [compound 1800] | Key
* 1801 (LEALPKFLKN; REGION 1..10: note = epitope) [compound 1801] | Key
* 1854 (RTLQR; REGION 1..5: note = epitope) [compound 1854] | Key

====

tested on: IgE antibodies from patients; assay: Wheat epitope mapping (2): overlapping 10-amino-acid peptide fragments shifted by one amino acid; type: binding, human; settings: serum of patient P32 (WDEIA)
assay.endpoint: epitope sequence binding to IgE antibody, rank (Key/Preferably/More preferably)

Example entries begin here.
- 1878 (TVRTLQRT; REGION 1..8: note = epitope) [compound 1878]: Preferably
- 1961 (QQQQFPGQQ; REGION 1..9: note = epitope) [compound 1961]: Preferably
- 1962 (QQQFPGQQ; REGION 1..8: note = epitope) [compound 1962]: Key
- 1818 (PKFL; REGION 1..4: note = epitope) [compound 1818]: Key

query: What value of epitope sequence binding to IgE antibody, rank (Key/Preferably/More preferably) has been reported for the following substance? 1879 (TVRTLQ; REGION 1..6: note = epitope) [compound 1879]
result: Key

query: What value of epitope sequence binding to IgE antibody, rank (Key/Preferably/More preferably) has been reported for the following substance? 1817 (SGKELE; REGION 1..6: note = epitope) [compound 1817]
result: Key

====

system: IgE antibody present in the serum of a wheat-allergic patient; assay: Wheat epitope mapping (1): peptide array of overlapping 15-amino-acid peptides, chemiluminescence; format: binding, human; details: bound = chemiluminescence value minus N2nd value of 5 non-wheat-allergic subjects at least 35,000; serum of 49 patients
assay.endpoint: binding of patient-specific IgE antibodies to 15-residue peptide

- SEQ ID NO: 2004: common 15-residue epitope sequence of polypeptide (E33) (STGTIGKRFASINVE; REGION 1..15: note = epitope): confirmed to bind
- SEQ ID NO: 562: common 15-residue epitope sequence of polypeptide (E8) (KPSQQQPLPLQQILW; REGION 1..15: note = epitope): confirmed to bind
- SEQ ID NO: 131: common 15-residue epitope sequence of polypeptide (E2) (PPFPQQHQQFPQQQI; REGION 1..15: note = epitope): confirmed to bind

====

test system: IgE antibodies from patients; experiment: Wheat epitope mapping (2): overlapping 10-amino-acid peptide fragments shifted by one amino acid; assay type: binding, human; settings: serum of patient P16 (WDEIA); sequence without X;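 as to Rank of partial sequence as epitope binding to IgE antibody: key = sequence deemed particularly important within the common 15-residue sequence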
assay.endpoint: Rank of partial sequence as epitope binding to IgE antibody

Example entries begin here.
* 1573 (PQQPQQPFP; REGION 1..9: note = epitope) [compound 1573] | Preferably
* 1439 (SQQQA; REGION 1..5: note = epitope) [compound 1439] | Key
* 1437 (PQQPISQQQA; REGION 1..10: note = epitope) [compound 1437] | Preferably
* 1614 (YNPD; REGION 1..4: note = epitope) [compound 1614] | Key
* 1434 (YLQPQQPI; REGION 1..8: note = epitope) [compound 1434] | Preferably

query: What value of Rank of partial sequence as epitope binding to IgE antibody has been reported for the following substance? 1575 (QQPQQ; REGION 1..5: note = epitope) [compound 1575]
result: Preferably

query: What value of Rank of partial sequence as epitope binding to IgE antibody has been reported for the following substance? 1690 (EAANFT; REGION 1..6: note = epitope) [compound 1690]
result: Key

query: What value of Rank of partial sequence as epitope binding to IgE antibody has been reported for the following substance? 1436 (LQPQQP; REGION 1..6: note = epitope) [compound 1436]
result: Key

====

tested on: IgE antibodies from patients; experiment: Wheat epitope mapping (2): overlapping 10-amino-acid peptide fragments shifted by one amino acid; type: binding, human; settings: serum of patient G1 (adult, general immediate type allergy to wheat);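 as to epitope sequence binding to IgE antibody, rank (Key/Preferably/More preferably): key of grades: preferably = shorter partial sequence still acting as epitope; more preferably = sequence improving IgE binding; key = particularly important sequence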
assay.endpoint: epitope sequence binding to IgE antibody, rank (Key/Preferably/More preferably)

* 1740 (KEAANF; REGION 1..6: note = epitope) [compound 1740] | Key
* 1741 (SQVIIM; REGION 1..6: note = epitope) [compound 1741] | Key
* 1826 (PKFL; REGION 1..4: note = epitope) [compound 1826] | Key

====

tested on: IgE antibodies from patients; test: Wheat epitope mapping (2): overlapping 10-amino-acid peptide fragments shifted by one amino acid; assay type: binding, human; conditions: serum of patient P7 (WDEIA);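 as to epitope sequence binding to IgE antibody, rank (Key/Preferably/More preferably): key of grades: preferably = shorter partial sequence still acting as epitope; more preferably = sequence improving IgE binding; key = particularly important sequence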
assay.endpoint: epitope sequence binding to IgE antibody, rank (Key/Preferably/More preferably)

* 1910 (QFPGQQQ; REGION 1..7: note = epitope) [compound 1910] | Key
* 1755 (YLKK; REGION 1..4: note = epitope) [compound 1755] | Key
* 1909 (VPLVQ; REGION 1..5: note = epitope) [compound 1909] | Key

====

test system: IgE antibodies from patients; experiment: Wheat epitope mapping (2): overlapping 10-amino-acid peptide fragments shifted by one amino acid; type: binding, human; settings: serum of patient P52 (child, general immediate type allergy to wheat);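 as to epitope sequence binding to IgE antibody, rank (Key/Preferably/More preferably): key of grades: preferably = shorter partial sequence still acting as epitope; more preferably = sequence improving IgE binding; key = particularly important sequence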
assay.endpoint: epitope sequence binding to IgE antibody, rank (Key/Preferably/More preferably)

• 1730 (SQVIIM; REGION 1..6: note = epitope) [compound 1730] = Key
• 1825 (LPKF; REGION 1..4: note = epitope) [compound 1825] = Key
• 1728 (KEAANF; REGION 1..6: note = epitope) [compound 1728] = Key

====

test system: IgE antibodies from patients; assay: Wheat epitope mapping (2): overlapping 10-amino-acid peptide fragments shifted by one amino acid; format: binding, human; settings: serum of patient P26 (WDEIA);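 as to epitope sequence binding to IgE antibody, rank (Key/Preferably/More preferably): key of grades: preferably = shorter partial sequence still acting as epitope; more preferably = sequence improving IgE binding; key = particularly important sequence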
assay.endpoint: epitope sequence binding to IgE antibody, rank (Key/Preferably/More preferably)

Example entries begin here.
• 1954 (QQFPGQQ; REGION 1..7: note = epitope) [compound 1954] = Preferably
• 1811 (ALPKFLKNG; REGION 1..9: note = epitope) [compound 1811] = Preferably
• 1809 (ELEALPKFL; REGION 1..9: note = epitope) [compound 1809] = Preferably
• 1865 (TVRTLQR; REGION 1..7: note = epitope) [compound 1865] = Key

query: What value of epitope sequence binding to IgE antibody, rank (Key/Preferably/More preferably) has been reported for the following substance? 1955 (QFPGQ; REGION 1..5: note = epitope) [compound 1955]
result: Key
